In this section we review reported growth values for a set of compounds.
tested on: MDA-MB-231 breast; assay: NCI-60 one-dose screen, 48 h (100 = growth as untreated, 0 = no growth, -100 = all killed); conditions: 10 µM unless noted
This is part of a sample that, as a whole, favours compounds with a hit. Of some 83,000 tested, about 20% had one in any assay.
assay-metric: growth (%)

> print(dat)
                                   compound  assay.metric  value
1  COc1ccc(C/C(C)=C(\c2ccc(Cl)cc2)c2ccc(OCCN3CCCCCC3)cc2)cc1        growth   99.9
2  CC1(C)CC(=O)C(c2c(-c3ccccc3)[nH]c3[nH]c(=S)[nH]c(=O)c23)=C(O)C1        growth    101
3       COc1cc(-c2cnc3nonc3n2)c(OC)c2c1OCO2        growth   89.4
4  CC1CN(Cc2ccco2)C(=S)N(c2ccccc2)C1=O (stereo not given)        growth    106
5  COCCCN=C(N)c1ccc(NC(=O)c2ccc(C(=O)Nc3ccc(C(N)=NCCCOC)cc3)cc2)cc1        growth    112

* * *

system: SN12C renal; assay: NCI-60 one-dose screen, 48 h; details: 10 µM unless noted
About 83,000 compounds went through this panel and 20% of them were active in at least one assay; those are over-represented in the sample as a whole. Activity calls are given as the source filed them. The calls were made as follows: active = growth percent below 10; inactive = the rest.
Classes used: TRUE for active, FALSE for inactive

> print(dat)
                                    molecule  category
 1       COc1cc(-c2cnc3nonc3n2)c(OC)c2c1OCO2     FALSE
 2  CCCCCCCCCCCCCCCCCCNC(=O)[C@H]1CSC(c2ccc(OC)c(F)c2)N1 (some centres not stated)      TRUE
 3                        Cc1csc2ccc(Cl)cc12     FALSE
 4    COc1ccccc1/C=C(/C(=O)c1ccccc1)c1ccccc1     FALSE
 5  C/C(Cc1ccc(Cl)cc1)=C(\c1ccc(OCCN2CCCCCC2)cc1)c1ccc(OC(=O)C2CCCCC2)cc1     FALSE
 6            COc1cccc(/C=C\C(=O)c2ccccc2)c1     FALSE
 7  Cn1cc(-c2ccc(-c3cn(C)c4ncccc34)[nH]2)c2cccnc21     FALSE
 8  COc1ccc(C/C(C)=C(\c2ccc(Cl)cc2)c2ccc(OCCN3CCCCCC3)cc2)cc1     FALSE
 9  CCN(CC)CCCC(C)N/C(=C1\C(=O)NC(=O)\C1=C(/NC(C)CCCN(CC)CC)c1cccc(OC)c1)c1cccc(OC)c1 (configuration not stated)      TRUE
10      O=C1C(=O)N(CCCCn2cc(CO)nn2)c2ccccc21     FALSE
11  CN1CCN(Cc2ccc(NC(=O)c3cncc(C#Cc4c(N)ncc5ccc(C#N)cc45)c3)cc2C(F)(F)F)CC1      TRUE
12                              C/C=C/C(N)=O     FALSE
13      Cc1cc2cc3cc(C)c(N(C)C)cc3nc2cc1N(C)C     FALSE
14               OCCNCCNc1c2ccccc2nc2ccccc12     FALSE
15            CCCCCCCCCCCCCCCC[N+]1(CC)CCCC1      TRUE
16  Cc1cc2c(cc1C)NC1=C(N2)OC(c2c3ccccc3cc3ccccc23)C1=O (configuration not stated)     FALSE
17  Cn1c2ccccc2c2c3[nH]c(=O)[nH]c(=O)c3c3c4ccccc4n(C)c3c21     FALSE
18  C/C(=C(/c1ccc(O)cc1)c1ccc(OCCN2CCCC2)cc1)c1ccccc1     FALSE
19  CN(C)c1ccc(/C=C\C2=[N+](C)c3ccccc3C2(C)C)cc1      TRUE
20  CCCCCCCCCCCCCC(=O)C(C)N (configuration not stated)      TRUE
21  CNC(=O)c1cc(Oc2ccc3nc(NC(=O)Nc4ccc(CN5CCOCC5)c(C(F)(F)F)c4)sc3c2)ccn1     FALSE
22         CCCNc1nc(SC)nc(-c2cccc(N)c2)c1C#N     FALSE
